In this section we review reported kon values for a set of binders.
Molecular target: T1, ALK7-Fc comprising protein (Homo sapiens (Human), UniProt Q8NER5 21-113)
T1 construct: not shown: The Fc part and any linker of the fusion; The construct's exact ALK7 limits are not seen either
T1 sequence: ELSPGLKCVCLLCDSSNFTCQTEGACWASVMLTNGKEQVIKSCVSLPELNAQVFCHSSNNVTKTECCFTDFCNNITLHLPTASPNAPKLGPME
Experiment: SPR (Biacore T100/T200), 25 °C; antibody captured on FAB chip, ALK7-Fc comprising protein as analyte; 1:1 model
Please answer in the form of a number followed by its unit of measurement.

Here are 3 binders together with their reported answers.
binder	kon
K02 (antibody, V domains shown, also called mAb K02; antibody K02) VH: QVQLVQSGAEVKKPGSSVKVSCKASGGTFSSSAIGWVRQAPGQGLEWMGGIWPIFGTALYAQKFQGRVTITADESTSTAYMELSSLRSEDTAVYYCARDPREYIHVFDIWGQGTMVTVSS VL: DIQMTQSPSSLSASVGDRVTITCRASQSISSYLNWYQQKPGKAPKLLIYGASSLQSGVPSRFSGSGSGTDFTLTISSLQPEDFATYYCQQAYSFPWTFGGGIKVEIK	23500 M⁻¹ s⁻¹
L02 (antibody, V domains shown, also called mAb L02; antibody L02) VH: QVQLVQSGAEVKKPGASVKVSCKASGYTFAGYNMHWVRQAPGQGLEWVGIINPNSGWTNYAQKFQGRVTMTRDTSVSAAYMELSRLRSDDTAVYYCARDPVGARYEVFDYWGQGTLVTVSS VL: EIVMTQSPATLSVSPGERATLSCRASQSVSSALAWYQQKPGQAPRLLIYSAFTRASGIPARFSGSGSGTEFTLTISSLQSEDFAVYYCQQAWAFPLTFGGGTKVEIK	27400 M⁻¹ s⁻¹
G05 (antibody, human IgG1, kappa, V domains shown, also called mAb G05; antibody G05) VH: QVQLVQSGAEVKKPGSSVKVSCKASGGTFSGQAISWVRQAPGQGLEWMGGIIPSFGTARYAQKFQGRVTITADESTSTAYMELSSLRSEDTAVYYCARTPYYDSSGYLDVWGQGTMVTVSS VL: DIQMTQSPSSLSASVGDRVTITCQASHDIDNYLNWYQQKPGKAPKLLIYYASNLKTGVPSRFSGSGSGTDFTFTISSLQPEDIATYYCQQSRASPPTFGGGTKVEIKR	29900 M⁻¹ s⁻¹

# input for lookup
Supply reported kon belonging to this binder: J02 (antibody, V domains shown, also called mAb J02; antibody J02) VH: EVQLLESGGGLVQPGGSLRLSCAASGFTFSVYAMSWVRQAPGKGLEWVSAISGSGDSTVYADSVKGRFTISRDNSKNTLYLQMNSLRAEDTAVYYCAKPSYQPIYWGQGTLVTVSS VL: DIQMTQSPSSVSASVGDRVTITCRASQGISSWLAWYQQKPGKAPKLLIYAASSLQSGVPSRFSGSGSGTDFTLTISSLQPEDFATYYCQQAASYPLTFGGGTKVEIK
23600 M⁻¹ s⁻¹
